The reported numbers originate from PubChem BioAssay AID463229.

tested on: INS-1E rat beta cells, no cytokines, CellTiter-Glo ATP, 48 h; test: cytokine-free beta-cell viability effect – INS-1E rat cells, ATP luminescence, cherry pick, counter-screen for beta-cell apoptosis protection project, dose response (AID 463229)
# key: entry, value: AC50

{"compound": "C#CC(=O)N(c1cccc(OC)c1)C(C(=O)NC1CCCC1)c1cccs1 (stereo unspecified)", "AC50": "14.7 µM"}
{"compound": "CCC1(OC(=O)CN)C(=O)OCc2c1cc1n(c2=O)Cc2cc3ccccc3nc2-1 (stereo unspecified)", "AC50": "< 0.195 µM"}
{"compound": "Nc1nonc1-n1nnc(C(=O)N/N=C/c2cc(Cl)ccc2O)c1CN1CCCCCC1", "AC50": "10.5 µM"}
{"compound": "Cc1cccc(/C=N/NC(=O)c2c(-c3ccccc3)noc2C)c1O", "AC50": "7.61 µM"}
{"compound": "Cc1oc2c(c1C(=O)c1ccccc1)C(=O)C(=O)c1ccccc1-2", "AC50": "3.52 µM"}
{"compound": "Cc1c(C(C)C)c(=O)n(-c2ccc(S(=O)(=O)NCc3ccccc3)cc2)n1C", "AC50": "3.71 µM"}
{"compound": "Cc1nnsc1C(=O)N/N=C/c1ccc2ccccc2c1O", "AC50": "1.81 µM"}
{"compound": "CCCCCCCC[n+]1c(C)n(-c2ccccc2)c2ccc(NC(C)=O)cc21", "AC50": "3.76 µM"}
{"compound": "CCC(=O)N1c2ccc(S(=O)(=O)N3CCN(c4ccc([N+](=O)[O-])cc4)CC3)cc2CC1C (stereo unspecified)", "AC50": "6.37 µM"}
{"compound": "CCCCNc1c(-c2cccc(-c3ccc(OC)cc3)c2)nc2ccc(C)cn12", "AC50": "7.32 µM"}
{"compound": "COc1cc(/C=C(/C(=O)c2cccs2)c2nc3ccccc3[nH]2)ccc1O", "AC50": "12.9 µM"}
{"compound": "CN(C1=C(NC(=O)c2ccccc2)C(=O)c2ccccc2C1=O)C1CCS(=O)(=O)C1 (stereo unspecified)", "AC50": "4.84 µM"}
{"compound": "O=[N+]([O-])c1ccc(/C=N/n2cnc3ccccc32)s1", "AC50": "4.04 µM"}
{"compound": "Cc1ccc(S(=O)(=O)c2ccc([N+](=O)[O-])cn2)cc1", "AC50": "13.5 µM"}
{"compound": "COc1ccc(C(CCNCc2ccc(OC(C)C)cc2)c2ccccc2OC)cc1 (stereo unspecified)", "AC50": "7.84 µM"}
{"compound": "CCSc1ccc(NC(=O)c2cccnc2)cc1", "AC50": "11.1 µM"}
{"compound": "CCOc1cc(/C=N/NC(=O)c2cc(-c3cccc(OC)c3)nc3ccccc23)ccc1O", "AC50": "6.59 µM"}
{"compound": "Cc1ccc(-c2cc(-c3ccc(C)cc3)[n+](-c3ccc(C(=O)[O-])cc3)c(-c3ccc(C)cc3)c2)cc1", "AC50": "7.24 µM"}
{"compound": "CN(C)CCCN(C(=O)COc1ccc(Cl)cc1)c1nc2cc3c(cc2s1)OCO3", "AC50": "15.6 µM"}
{"compound": "NC(N)=N/N=C/c1ccc(N(c2ccccc2)c2ccccc2)cc1", "AC50": "7.36 µM"}
{"compound": "Cc1cc(N/N=C/c2ccccc2[N+](=O)[O-])nc(-n2nc(C)cc2C)n1", "AC50": "12.2 µM"}

====

Each entry below carries its recorded AC50.
test system: INS-1E rat beta cells, no cytokines, CellTiter-Glo ATP, 48 h; test: cytokine-free beta-cell viability effect – INS-1E rat cells, ATP luminescence, cherry pick, counter-screen for beta-cell apoptosis protection project, dose response (AID 463229)

{"molecule": "CCOC(=O)N1CCN(Cc2cc(Cl)c3cccnc3c2O)CC1", "AC50": "13.2 µM"}
{"molecule": "CCOc1ccc(/C=N/NC(=O)c2[nH]ncc2Br)c(O)c1", "AC50": "3.66 µM"}
{"molecule": "CCC1=NN(C(=O)c2ccccc2O)C(O)(c2ccccc2)C1 (stereo unspecified)", "AC50": "15.6 µM"}
{"molecule": "COc1cc(Br)cc(/C=N/NC(=O)Cc2ccc(C(F)(F)F)cc2[N+](=O)[O-])c1O", "AC50": "14.7 µM"}
{"molecule": "COc1cccc(/C=N/Nc2ccc([N+](=O)[O-])cn2)c1O", "AC50": "7.78 µM"}
{"molecule": "CC(C)(C)c1ccc(-n2ncc3c2CCCC3NC(=O)C2(C(N)=O)CC2)cc1 (stereo unspecified)", "AC50": "6.85 µM"}
{"molecule": "O=C(NC1(Cc2ccccc2)CCN(CCCc2ccccc2)C1=O)c1ccccc1 (stereo unspecified)", "AC50": "4.71 µM"}
{"molecule": "Cn1nc(-c2ccc(Cl)cc2)nc2c(=O)n(C)c(=O)nc1-2", "AC50": "0.508 µM"}
{"molecule": "CCCCn1c(NS(=O)(=O)c2ccccc2)c(S(=O)(=O)c2ccc(C)cc2)c2nc3ccccc3nc21", "AC50": "22.1 µM"}
{"molecule": "COc1cc(OC)c(NC2=CC(=O)C(=O)c3ccccc32)cc1Cl", "AC50": "8.07 µM"}
{"molecule": "CN1C2CCC1/C(=C/c1ccccn1)C(=O)/C2=C\\c1ccccn1", "AC50": "2.11 µM"}
{"molecule": "CC1(C)CC(=O)C2=C(C1)OC1=C(C(=O)CC(C)(C)C1)C2c1ccc(O)cc1O", "AC50": "7.31 µM"}
{"molecule": "O=C(NCc1cccnc1)Nc1ccc([N+](=O)[O-])cc1", "AC50": "11.8 µM"}
{"molecule": "Cc1cccc2c(C(=O)N3CCN(c4ccccn4)CC3)cc(-c3cccc(Br)c3)nc12", "AC50": "3.08 µM"}
{"molecule": "CCn1c(=NC(=O)CCS(=O)(=O)c2ccccc2)sc2cccc(OC)c21", "AC50": "7.2 µM"}
{"molecule": "N#Cc1ccc(-c2csc(NNC(=O)c3ccc(Br)cc3)n2)cc1", "AC50": "15.6 µM"}
{"molecule": "CCN(CC)c1ccc(/C=N/NC(=O)c2c(Cl)cnn2C)c(O)c1", "AC50": "1.5 µM"}
{"molecule": "CCCCCn1c(=O)c(C(=O)NCc2ccccc2Cl)c(O)c2ccccc21", "AC50": "6.84 µM"}
{"molecule": "CC(NC(=O)c1cc(COc2ccc3ncccc3c2)on1)c1ccc(F)cc1 (stereo unspecified)", "AC50": "5.86 µM"}
{"molecule": "COc1cccc(/C=N/Nc2cc(C)nc(-c3ccccc3O)n2)c1O", "AC50": "15.1 µM"}
{"molecule": "CCn1nc(C)c(CNC(=O)c2ccc(OC3CCN(Cc4ccccn4)CC3)cc2)c1C", "AC50": "6.9 µM"}
{"molecule": "O=C(C#Cc1ccccc1)c1ccco1", "AC50": "7.8 µM"}
{"molecule": "Nc1nc(F)nc2c1ncn2[C@@H]1O[C@H](CO)[C@@H](O)[C@H]1O", "AC50": "0.699 µM"}
{"molecule": "C=CC(C)(C)c1c(O)c(CC=C(C)C)c(O)c2c(=O)c3ccc(O)c(O)c3oc12", "AC50": "5.39 µM"}
{"molecule": "CCCCCCc1cc2cc(-c3nnc(-c4ccccc4)o3)c(=O)oc2cc1O", "AC50": "7.25 µM"}
{"molecule": "c1ccc2c(NCCCN3CCOCC3)c3ccccc3nc2c1", "AC50": "6.37 µM"}
{"molecule": "Cc1ccc(C(=O)N/C(=C\\c2ccc(-c3ccc(Cl)cc3)o2)C(=O)NCCCN(C)C)cc1", "AC50": "10.9 µM"}
{"molecule": "O=C(C1CCC1)N1CCc2cc(S(=O)(=O)Nc3ccc4c(c3)OCCO4)ccc21", "AC50": "7.92 µM"}
{"molecule": "Cc1ccc(Nc2c(-c3ccccn3)nc3cccc(C)n23)cc1", "AC50": "6.47 µM"}
{"molecule": "COc1cc(CN2CCN(c3cc(C)ccc3C)CC2)ccc1O", "AC50": "7.21 µM"}
{"molecule": "c1ccc(-[n+]2nc(Nc3cccc4ccccc34)sc2-c2c3ccccc3cc3ccccc23)cc1", "AC50": "3.86 µM"}
{"molecule": "O=C(Nc1nc(-c2ccccn2)cs1)c1ccccc1-n1cnnn1", "AC50": "5.32 µM"}
{"molecule": "Cc1cc(C)nc(SCc2ccc(C(=O)N/N=C/c3cccc(O)c3O)cc2)n1", "AC50": "8.06 µM"}
{"molecule": "C=C1C(O)[C@@H]2O[C@]3(CC[C@H](/C=C/C(C)[C@@H]4CC(C)=CC5(O[C@H](C[C@@](C)(O)C(=O)O)CCC5O)O4)O3)CC[C@H]2O[C@@H]1C(O)CC(C)[C@H]1OC2(CCCCO2)CCC1C (stereo partly specified)", "AC50": "< 0.195 µM"}
{"molecule": "Cc1[nH]c2ccccc2c1CN1CCN(c2ccccn2)CC1", "AC50": "5.1 µM"}
{"molecule": "COc1ccc(CNC[C@@H](CCCCN(C)Cc2ccc(OC)cc2)N2C[C@H](c3ccccc3)N(CCc3ccc(Cl)c(Cl)c3)C(=O)C2=O)cc1", "AC50": "7.17 µM"}
{"molecule": "CN(C1=C(NC(=O)c2ccc(Cl)cc2)C(=O)c2ccccc2C1=O)c1ccccc1", "AC50": "13 µM"}
{"molecule": "CCCC(=O)NC(c1ccc(OC)c(OC)c1)c1cc(Cl)c2cccnc2c1O (stereo unspecified)", "AC50": "7.47 µM"}
{"molecule": "N#CC(C#N)=NNc1ccc(-n2ccc(C(F)(F)F)n2)cc1", "AC50": "7.8 µM"}
{"molecule": "O=C(CN1CC[n+]2c(-c3cccs3)csc21)c1ccc(-c2ccccc2)cc1", "AC50": "2.34 µM"}
{"molecule": "C/C(=N\\NC(=O)c1ccc(Cl)cc1)c1ccccn1", "AC50": "1.62 µM"}
